Data provenance is patent US20170212130A1.

targetOrTestSystem: T1, mCherry (Discosoma)
T1 construct: Immunogen is mCherry-His6; SPR says recombinant mCherry; also called recombinant mCherry-His6; Discosoma mCherry
assayRemarks: label under gel lane; legend: in vitro Kd for mCherry by SPR
pKd: −log10 of the molar value.
Here, each record is paired with measured pKd data.
measurementName: pKd

[[record]]
binder = "LaM-8 (VHH) VHH: QVQLVESGGGLVQAGGSLRLSCAVSGRPFSEYNLGWFRQAPGKEREFVARIRSSGTTVYTDSVKGRFSASRDNAKNMGYLQLNSLEPEDTAVYYCAMSRVDTDSPAFYDYWGQGTQVTVST"
measurementname = "pKd"
measured = 7.20

[[record]]
binder = "LaM-6 (VHH) VHH: QVQLVESGGGLVQAGGSLRLSCVASGSAPSFFAMAWYRQSPGNERELVAALSSLGSTNYADSVKGRFTISMDNAKNTVYLQMNNVNAEDTAVYYCAAGDFHSCYARKSCDYWGQGTQVTVS"
measurementname = "pKd"
measured = 9.59

[[record]]
binder = "LaM-3 (VHH) VHH: QVQLVQSGGGLVQAGGSLRLSCAASGRTFSDIAVGWFRQTPGKEREFVAAISWSGLIINYGDSVEDRFTISRDNAKSAVYLQMNSLKPEDTAVYYCAARIGMNYYYAREIEYPYWGQGTQVTVS"
measurementname = "pKd"
measured = 8.72

[[record]]
binder = "LaM-1 (VHH) VHH: QVQLVESGGGLVQAGDSLRLSCAASGRTFENYAMGWFRQAPGKEREFVGAVSWGGGRTYYADNVKGRFTISRDNAKKNTVYLQMNSLKPEDTAVYYCAAKSVLTIATMRVPDEYNYWGQGTQVTVS"
measurementname = "pKd"
measured = 7.66

